System: S. lividans pCAO200SU1-FeS-B#9
protocol-details: Sulfonylurea metabolism by washed cell suspension (Examples 6-9)
Type: in vitro ADME, Streptomyces lividans
conditions-used: substrate 10006; 4 h

{"compound-structure-string": "COC(=O)c1ccccc1S(=O)(=O)NC(=O)Nc1nc(C)nc(O)n1", "unit-of-measurement": "µM", "concentration in supernatant": 21}
{"compound-structure-string": "COC(=O)c1ccccc1S(=O)(=O)NC(=O)Nc1nc(CO)nc(OC)n1", "unit-of-measurement": "µM", "concentration in supernatant": 33}
{"compound-structure-string": "COc1nc(C)nc(=NC(=O)NS(=O)(=O)c2ccccc2C(=O)O)[nH]1", "unit-of-measurement": "µM", "concentration in supernatant": 38}
{"compound-structure-string": "COC(=O)c1ccccc1S(=O)(=O)NC(=O)Nc1nc(C)nc(OC)n1", "unit-of-measurement": "µM", "concentration in supernatant": 267}
